Taken from patent US20210395713A1.

Recorded measurements of pIC50, one per entry
- system-tested: T1, purified recombinant MHC II protein, allele DRB1*1101 (human)
- T1 construct: bought from Benaroya Research Institute; also called MHC-II DR molecule
- assay: MHC II competition binding assay;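 further: Peptide–MHC II complexes pulled from equilibrium mixtures onto ELISA plates carrying a conformation-specific anti-HLA-DR antibody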
pIC50: −log10 of the molar value.
quantity-measured: pIC50

binder="GVDFFMNEGTPVHAISSGKIV (synthetic mutated peptide of the lysostaphin catalytic domain; also called 41_46) [cluster 2 peptide with Ile41Glu/Lys46His]" quantity_measured=pIC50 inequality_operator=> endpoint_result=8.00
binder="GVDFFMNIGTPVKAISSGKIV [cluster 2 wild-type (C2WT) epitope peptide]" quantity_measured=pIC50 inequality_operator== endpoint_result=5.00
binder="GVDFFMNIGTPVHAISSGKIV (synthetic mutated peptide of the lysostaphin catalytic domain; also called K46H) [cluster 2 peptide with Lys46His]" quantity_measured=pIC50 inequality_operator== endpoint_result=4.74
binder="GVDFFMNEGTPVKAISSGKIV (synthetic mutated peptide of the lysostaphin catalytic domain; also called I41E) [cluster 2 peptide with Ile41Glu]" quantity_measured=pIC50 inequality_operator== endpoint_result=3.84
